biological target: 3',5'-cyclic-AMP phosphodiesterase 4B (Homo sapiens, UniProt Q07343); test: Inhibition of PDE4B2 (unknown origin)
Sequence (Q07343 whole entry): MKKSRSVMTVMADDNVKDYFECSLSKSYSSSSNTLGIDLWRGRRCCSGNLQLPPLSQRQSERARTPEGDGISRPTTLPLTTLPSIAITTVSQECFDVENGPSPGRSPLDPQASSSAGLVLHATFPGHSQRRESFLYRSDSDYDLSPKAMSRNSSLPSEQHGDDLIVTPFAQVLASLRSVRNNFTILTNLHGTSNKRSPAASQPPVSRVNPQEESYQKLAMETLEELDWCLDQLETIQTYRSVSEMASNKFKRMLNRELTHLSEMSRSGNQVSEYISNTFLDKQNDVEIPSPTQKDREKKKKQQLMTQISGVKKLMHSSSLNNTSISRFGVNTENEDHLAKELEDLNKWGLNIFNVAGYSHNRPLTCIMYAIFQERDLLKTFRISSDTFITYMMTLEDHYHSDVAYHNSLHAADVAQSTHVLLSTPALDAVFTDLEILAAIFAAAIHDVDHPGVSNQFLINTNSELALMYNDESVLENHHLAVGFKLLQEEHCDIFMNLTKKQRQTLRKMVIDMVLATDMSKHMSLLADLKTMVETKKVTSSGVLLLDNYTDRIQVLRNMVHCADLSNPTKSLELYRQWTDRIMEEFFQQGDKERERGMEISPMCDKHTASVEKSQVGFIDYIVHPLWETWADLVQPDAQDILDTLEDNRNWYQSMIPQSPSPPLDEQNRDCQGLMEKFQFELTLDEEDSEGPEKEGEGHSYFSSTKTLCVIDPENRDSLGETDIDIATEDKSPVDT
pIC50: −log10 of the molar value.
ENDPOINT LABEL: pIC50

The compound listed as `N#Cc1ccc(Oc2ccc3c(c2)COB3O)cc1` has a reported pIC50 of 6.47 to 7.26

###

target: 3',5'-cyclic-AMP phosphodiesterase 4A (Homo sapiens, UniProt P27815); assay: Inhibition of PDE4A1A (unknown origin)
Sequence (P27815 whole entry): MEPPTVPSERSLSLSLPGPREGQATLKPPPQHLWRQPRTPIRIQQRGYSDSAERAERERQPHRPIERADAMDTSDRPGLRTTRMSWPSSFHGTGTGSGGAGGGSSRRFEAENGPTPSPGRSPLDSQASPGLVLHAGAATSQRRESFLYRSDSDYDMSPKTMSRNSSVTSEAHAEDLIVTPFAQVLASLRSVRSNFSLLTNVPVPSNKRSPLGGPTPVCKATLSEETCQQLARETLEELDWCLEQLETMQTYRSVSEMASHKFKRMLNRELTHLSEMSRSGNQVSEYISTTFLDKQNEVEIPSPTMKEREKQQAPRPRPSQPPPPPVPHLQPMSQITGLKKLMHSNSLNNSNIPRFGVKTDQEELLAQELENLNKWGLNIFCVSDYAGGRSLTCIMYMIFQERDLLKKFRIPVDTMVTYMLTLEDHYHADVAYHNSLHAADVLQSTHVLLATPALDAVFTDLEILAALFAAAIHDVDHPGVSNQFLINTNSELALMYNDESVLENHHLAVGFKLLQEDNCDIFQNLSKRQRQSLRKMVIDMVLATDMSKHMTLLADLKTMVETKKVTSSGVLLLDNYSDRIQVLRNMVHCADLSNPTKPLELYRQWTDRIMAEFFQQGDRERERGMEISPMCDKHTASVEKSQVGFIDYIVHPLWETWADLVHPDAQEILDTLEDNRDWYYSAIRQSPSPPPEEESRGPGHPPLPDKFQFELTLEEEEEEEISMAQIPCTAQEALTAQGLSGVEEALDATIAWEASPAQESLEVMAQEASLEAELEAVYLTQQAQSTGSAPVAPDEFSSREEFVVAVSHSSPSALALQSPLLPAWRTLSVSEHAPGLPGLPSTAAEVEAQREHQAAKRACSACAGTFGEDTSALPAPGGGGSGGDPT
ENDPOINT LABEL: IC50

Lookup result for `N#Cc1ccc(Oc2ccc3c(c2)COB3O)cc1` ; measured IC50: 55 to 340 nM
